Each item that follows carries a reported TGI.
Tested on: DU-145 prostate
protocol.text: NCI tumour cell line growth inhibition, 48 h
property: TGI

[[record]]
compound = "COc1ccc2cc(-c3cc4c(oc3=O)-c3ccccc3OC4O)c(=O)oc2c1 (stereo not given)"
property = "TGI"
value_measured = "27.4 µM"

[[record]]
compound = "Cc1cc(S(=O)(=O)Nc2cc(N)[nH]n2)c(SCc2nc(N)nc(N(C)C)n2)cc1Cl"
property = "TGI"
value_measured = "> 10 µM"

[[record]]
compound = "CC(C)NC(=O)OCc1c(COC(=O)NC(C)C)c(-c2cc[n+](COC(=O)C(C)(C)C)cc2)n2c1CCC2"
property = "TGI"
value_measured = "> 100 µM"

[[record]]
compound = "COc1ccc2cc(C(=O)O)ccc2c1OC"
property = "TGI"
value_measured = "> 100 µM"

[[record]]
compound = "Cc1cc(O)ccc1C1=NN(c2ccc(S(C)(=O)=O)cc2)C(=O)CC1"
property = "TGI"
value_measured = "> 100 µM"

